Sourced from patent US20220260557A1

Assay: Serum biotin levels after 20 mg biotin ingestion, free biotin ELISA
Conditions: both, human, in vivo, 20 mg, Biotin Concentration 24-hr, 24 hr after 20 mg biotin ingestion, per volunteer
Description: Baseline serum samples were obtained from 5 apparently healthy adult volunteers (4 male, 1 female) by antecubital venous blood draw in BD brand Vacutainer™ 10 mL red top tubes. […] Blood was allowed to clot for 1 hour at RT and centrifuged at 2,000 rpm for 15 min in a Beckman Allegra 6R tabletop centrifuge. For each time point, serum samples from each volunteer was pooled, mixed for 15 min at RT, aliquoted into 1.2 mL aliquots in 2 mL cryo-vials, and frozen at −80° C. […]
observed.property: concentration at 24 h

Lab note: measured concentration at 24 h of O=C(O)CCCC[C@@H]1SC[C@@H]2NC(=O)N[C@@H]21 was 24 to 32 ng/mL
